Ref: patent US20250340608A1

Molecular target: T1, human ferroportin (SLC40A1) fused in frame with GFP, stably expressed in HEK293 cells (human, UniProt Q9NP59 1-571)
T1 sequence (looked up): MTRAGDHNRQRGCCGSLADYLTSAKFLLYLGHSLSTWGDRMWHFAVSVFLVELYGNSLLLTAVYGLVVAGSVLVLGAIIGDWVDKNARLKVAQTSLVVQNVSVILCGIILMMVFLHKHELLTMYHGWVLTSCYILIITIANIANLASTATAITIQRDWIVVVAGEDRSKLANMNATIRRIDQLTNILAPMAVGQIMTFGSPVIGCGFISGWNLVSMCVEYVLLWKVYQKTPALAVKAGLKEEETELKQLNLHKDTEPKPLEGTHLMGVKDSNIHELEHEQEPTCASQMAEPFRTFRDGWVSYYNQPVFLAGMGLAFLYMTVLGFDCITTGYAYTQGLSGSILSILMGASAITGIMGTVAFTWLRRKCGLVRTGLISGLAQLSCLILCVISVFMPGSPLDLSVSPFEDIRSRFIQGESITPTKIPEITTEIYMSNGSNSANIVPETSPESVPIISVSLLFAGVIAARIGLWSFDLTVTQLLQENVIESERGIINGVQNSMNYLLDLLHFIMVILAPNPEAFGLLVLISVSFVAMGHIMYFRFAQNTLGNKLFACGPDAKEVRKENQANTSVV
Experiment: cell-based or functional assay
Primed or numbered codes have the meaning given here. Side chains are listed from the residue outwards. * marks the point of attachment. Isovaleryl = CC(C)CC(=O)*; PEG3′ = not defined here
# maps each entry to its Potency EC50

Illustrative cases are given below, each with its answer.
H-DTHFPCIKFGPK([PEG3′-Isovaleryl])SKGWVCK-NH2 (cysteine pairing not given here) [Compound 211] :: > 300 nM
Isovaleryl-DTHFPCIKFGPRSKGWTCK-NH2 (cysteine pairing not given here) [Compound 154] :: 18 nM
Isovaleryl-DTHFPCIIFEPRSKGWVCKKKK-NH2 (cysteine pairing not given here) [Compound 144] :: 15 nM
Isovaleryl-DTHFPCIKFEPRSKKWVCK-NH2 (not fully specified (bridges); cysteine pairing not given here) [Compound 214] :: 15 nM

Please turn your attention to the following entry.
Problem: Give the measured Potency EC50 of H-DTHFPCIKFGPRSKGWVCM-NH2 (cysteine pairing not given here) [Compound 136] .
Solution: 669 nM
